The reported measurements were obtained from patent US9266939B2.

TGT: NPR-B (Homo sapiens, UniProt P20594)
Sequence (P20594 23-1047): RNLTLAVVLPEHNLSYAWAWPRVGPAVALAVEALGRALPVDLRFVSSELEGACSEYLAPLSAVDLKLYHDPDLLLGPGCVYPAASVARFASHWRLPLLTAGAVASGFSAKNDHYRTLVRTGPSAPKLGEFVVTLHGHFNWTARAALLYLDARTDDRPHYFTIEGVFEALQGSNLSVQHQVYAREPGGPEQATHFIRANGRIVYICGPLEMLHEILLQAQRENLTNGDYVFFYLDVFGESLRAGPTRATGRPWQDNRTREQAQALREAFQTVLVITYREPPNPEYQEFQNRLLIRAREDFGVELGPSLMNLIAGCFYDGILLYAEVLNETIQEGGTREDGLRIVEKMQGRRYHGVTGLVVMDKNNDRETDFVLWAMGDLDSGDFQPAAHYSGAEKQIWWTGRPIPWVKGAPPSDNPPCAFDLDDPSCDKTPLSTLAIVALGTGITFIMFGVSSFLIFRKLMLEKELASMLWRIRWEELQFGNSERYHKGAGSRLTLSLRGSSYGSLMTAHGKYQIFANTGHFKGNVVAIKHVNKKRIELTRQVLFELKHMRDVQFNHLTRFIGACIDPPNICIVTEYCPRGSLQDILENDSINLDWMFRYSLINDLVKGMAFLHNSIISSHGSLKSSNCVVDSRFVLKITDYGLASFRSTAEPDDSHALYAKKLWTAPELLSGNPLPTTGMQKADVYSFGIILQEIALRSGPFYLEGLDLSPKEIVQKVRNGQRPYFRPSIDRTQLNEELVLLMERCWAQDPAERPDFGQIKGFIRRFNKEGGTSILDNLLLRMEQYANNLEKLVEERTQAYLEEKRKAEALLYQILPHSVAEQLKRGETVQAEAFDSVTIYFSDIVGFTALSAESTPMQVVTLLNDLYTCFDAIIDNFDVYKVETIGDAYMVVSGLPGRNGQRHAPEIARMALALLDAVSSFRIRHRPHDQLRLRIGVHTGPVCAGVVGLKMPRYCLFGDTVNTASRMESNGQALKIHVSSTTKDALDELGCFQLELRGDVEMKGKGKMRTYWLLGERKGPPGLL
EXPERIMENT DESCRIPTION: Whole cell guanylyl cyclase (cGMP) assay, NPR-B
Assay type: cell-based
Parameters: expressed in transfected cells
COND: CNP22 position 17 point mutants, NPR-B whole cell cGMP assay (FIG. 30)
MEASURED PARAMETER: potency compared with CNP22

[[record]]
substance = "CNP-R17: CNP22 point mutant at position 17; SEQ ID NO: 157 (GLSKGCFGLKLDRIGSRSGLGC; Synthetic Construct (CNP-R17))"
measured_parameter = "potency compared with CNP22"
meas_value = "improved potency"

[[record]]
substance = "CNP-Y17: CNP22 point mutant at position 17; SEQ ID NO: 158 (GLSKGCFGLKLDRIGSYSGLGC; Synthetic Construct (CNP-Y17))"
measured_parameter = "potency compared with CNP22"
meas_value = "improved potency"


* * *

TGT: NPR-B (Homo sapiens, UniProt P20594)
EXPERIMENT DESCRIPTION: Whole cell guanylyl cyclase (cGMP) assay, NPR-B
Type: cell-based
Parameters: expressed in transfected cells
COND: EC50
Method: HEK293S cells in a semi-confluent 75 cm2 flask are transfected with 30 μg of plasmid DNA coding for the appropriate receptor, e.g., human NPR-B or NPR-A, using Lipofectamine-2000CD. Alternatively, a stable polyclonal HEK293 S cell line expressing either human NPR-B or NPR-A was used. […] Concentrations of cGMP in lysate are determined using the Catchpoint cGMP kit. Dose-response curves are analysed with GraphPad Prism 5 software using non-linear regression with four-parameter logistic equation.
Bridge positions count the residues as written; N and C are the ends. Ends that are not written are not given here.
Labelling field: enter yes if recorded EC50 is less than 900 nM. Enter no if it equals or exceeds that cut-off.

[[record]]
sequence_chain = "EEEEEESGGGGSGGGGSGGGGGLSKGCFGLKLDRIGSMSGLGC (disulfide 27-43) [C1(E6) [BC1]]"
group = "no"

[[record]]
sequence_chain = "EEEEEESGGGGSGGGQGANKKGLSKGCFGLKLDRIGSMSGLGC (disulfide 27-43) [C8(E6) [BC8]]"
group = "yes"

[[record]]
sequence_chain = "EEEEEESGGGGSGGGQGANQQGLSKGCFGLKLDRIGSMSGLGC (disulfide 27-43) [C5(E6) [BC5]]"
group = "no"

[[record]]
sequence_chain = "EEEEEESGGGGSGGGKGANKQGLSKGCFGLKLDRIGSMSGLGC (disulfide 27-43) [C6(E6) [BC6]]"
group = "yes"

[[record]]
sequence_chain = "EEEEEESGGGGSGGGKGANKKGLSKGCFGLKLDRIGSMSGLGC (disulfide 27-43) [C4(E6) [BC4]]"
group = "yes"

[[record]]
sequence_chain = "EEEEEEPSSAAPQPNAPSTSAGLSKGCFGLKLDRIGSMSGLGC (disulfide 27-43) [C3(E6) [BC3]]"
group = "no"

